Biological target: Fibroblast growth factor 2 (Homo sapiens)
Experiment: basic fibroblast growth factor binding to printed compounds – biochemical, small-molecule microarray, 635/667 nm fluorescence, primary screen (AID 1133)
Conditions: FGF2, fluorescence 635/667, higher = more signal
# composite z-score >= 0.3 gives Condition met, anything below gives Condition not met

INSERT INTO measurements (compound, assigned_label) VALUES
  ('COc1ccc([Si](C)(C)[C@@H]2[C@@H](CC(=O)N3Cc4ccccc4C[C@H]3CO)O[C@]3(C(=O)N(Cc4cccc(N5CCC5=O)c4)c4ccccc43)[C@H]2C)cc1', 'Condition met'),
  ('C=CCN1Cc2ccccc2[C@@H]2OC(c3ccc(OCCCO)cc3)=N[C@]2(CCS(=O)(=O)c2ccccc2)C1=O', 'Condition met'),
  ('O=C1C2C=CC(C(O)C=Cc3ccc([N+](=O)[O-])cc3)N(n3cnnc3)C2C(=O)N1Cc1ccccc1 (stereo not drawn)', 'Condition not met'),
  ('CC(C)CNC(=O)[C@@]1(Cc2ccccc2I)c2ccccc2C(=O)N(Cc2ccccc2C(F)(F)F)[C@H]1c1ccc(CO)cc1', 'Condition not met'),
  ('COCCOC(=O)N1C(=O)[C@@]2(c3cc(C#CC4(O)CCCCCC4)ccc31)[C@H](C(=O)Nc1nc3ccccc3s1)[C@H]1C(=O)O[C@H](c3ccccc3)[C@H](c3ccccc3)N1[C@@H]2c1ccc(OCCO)cc1', 'Condition met'),
  ('C#CCNCc1ccccc1', 'Condition not met'),
  ('COC(=O)[C@H](Cc1ccccc1)N[C@H](/C=C/C1CC1)[C@@H](O)Cc1ccccc1', 'Condition not met'),
  ('O=C(CS)NCCCCCNC(=O)[C@@H]1C[C@@H]2C(=O)NCC(=O)N2[C@@H]1c1ccc(O)cc1', 'Condition met'),
  ('COc1ccc(C(=O)Nc2cccc(CN3C(=O)[C@]4(O[C@H](CCn5cc(CCO)nn5)[C@@H]([Si](C)(C)c5ccc(OC)cc5)[C@@H]4C)c4ccccc43)c2)cc1', 'Condition not met'),
  ('C=C[C@H](C)[C@@H](OC(=O)Nc1ccc(SC)cc1)c1ccc(O)c2ccccc12', 'Condition met'),
  ('COCCOC(=O)N1C(=O)[C@@]2(c3ccccc31)[C@H](C(N)=O)[C@H]1C(=O)O[C@H](c3ccccc3)[C@H](c3ccccc3)N1[C@@H]2c1ccc(O)cc1', 'Condition not met'),
  ('COCCOC(=O)N1C(=O)[C@@]2(c3ccccc31)[C@H](C(=O)N1CCCCCCC1)[C@H]1C(=O)O[C@H](c3ccccc3)[C@H](c3ccccc3)N1[C@@H]2c1ccc(OCCO)cc1', 'Condition met'),
  ('C=CC[C@@]1(C(=O)N2CCCCC2)N=C(c2ccc(OCCCO)cc2)O[C@@H]1c1ccccc1CN=[N+]=[N-]', 'Condition not met');

* * *

Experiment: probe aNog binding to arrayed compounds – biochemical, biotinylated probe, 635/667 nm fluorescence, primary screen (AID 1115);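 further: probe is biotinylated aNog protein used at 0.15 µg/mL for 1 h at 4 C; z-score combines 667 nm fluorescence of each spot with its signal to noise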
Details: small-molecule microarray, higher = more signal
composite z-score values by entry
experimental endpoint: composite z-score

INSERT INTO measurements (compound, experimental_endpoint, recorded_result) VALUES
  ('O=C1C2C=CC(C(O)c3c(F)cccc3Cl)N(Nc3ccccc3F)C2C(=O)N1c1ccccc1 (stereo not given)', 'composite z-score', 0.933),
  ('O=C1OCCC=C[C@H]2OC34C=CCN(c5ccc(Cl)cc5)C(=O)[C@H]3N(CCCO)C(=O)[C@@H]4C12 (stereo not given in full)', 'composite z-score', 0),
  ('CC(C)(C)OC(=O)CC[C@]1(C(N)=O)N=C(c2ccc(OCCCO)cc2)O[C@H]1c1ccccc1', 'composite z-score', 1.36),
  ('O=C1O[C@H](c2ccccc2)[C@H](c2ccccc2)N2[C@H]1[C@@H](C(=O)NC[C@H](O)c1ccccc1)[C@]1(C(=O)Nc3ccccc31)[C@H]2c1ccc(O)cc1', 'composite z-score', 0.293),
  ('COc1cc2c(cc1O)C(c1cccs1)N(Cc1ccc([N+](=O)[O-])o1)CC2 (stereo not given)', 'composite z-score', 1.19),
  ('C[N+](C)(C)CCCC[C@@H]1NC(=O)[C@@H]2C[C@H](C(=O)NCCCCCN)[C@H](c3ccc(O)cc3)N2C1=O', 'composite z-score', 1.57),
  ('[N-]=[N+]=NCc1ccccc1C[C@@]1(C(=O)NCC(O)CO)N=C(c2ccc(OCCCO)cc2)O[C@@H]1c1ccccc1 (stereo not given in full)', 'composite z-score', 0.723),
  ('CC(C)=CCCC(C)=CC(O)C1C=CC2C(=O)N(c3ccccc3)C(=O)C2N1Nc1ccc(C(C)C)cc1 (stereo not given)', 'composite z-score', 1.6),
  ('O=C1O[C@@H](c2ccccc2)[C@@H](c2ccccc2)N2[C@@H](c3ccc(OCCO)cc3)[C@]3(C(=O)Nc4ccc(C#CCCO)cc43)[C@@H](C(=O)NC[C@H](O)c3ccccc3)[C@H]12', 'composite z-score', -0.398),
  ('CC(=O)Nc1cc(Br)ccc1C(=O)NCc1ccccc1', 'composite z-score', -0.196);
